Target: Type-1 angiotensin II receptor B (Rattus norvegicus, UniProt P29089)
Sequence (P29089 whole entry): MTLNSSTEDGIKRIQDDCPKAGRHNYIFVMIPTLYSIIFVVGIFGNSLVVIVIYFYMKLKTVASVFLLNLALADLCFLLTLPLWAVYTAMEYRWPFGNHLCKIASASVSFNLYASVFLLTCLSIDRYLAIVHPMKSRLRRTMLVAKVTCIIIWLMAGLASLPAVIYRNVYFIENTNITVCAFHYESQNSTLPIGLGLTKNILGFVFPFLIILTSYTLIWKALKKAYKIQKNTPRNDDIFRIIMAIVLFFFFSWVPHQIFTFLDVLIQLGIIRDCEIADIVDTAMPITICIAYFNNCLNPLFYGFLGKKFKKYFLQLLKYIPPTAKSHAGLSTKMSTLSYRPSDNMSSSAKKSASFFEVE
reportedMetric: IC50 (nM)

Previously resolved entries follow.
- structureSmilesString: "CCc1nn(Cc2ccc(-c3ccccc3-c3nn[nH]n3)cc2)/c(=N/C(=O)C2CC2)s1"
  targetDesc: "Type-1 angiotensin II receptor B (Rattus norvegicus, UniProt P29089)"
  IC50 [nM]: 6.5
- structureSmilesString: "CCc1nn(Cc2ccc(-c3ccccc3-c3nn[nH]n3)cc2)/c(=N/C(=O)c2ccccc2Cl)s1"
  targetDesc: "Type-1 angiotensin II receptor B (Rattus norvegicus, UniProt P29089)"
  IC50 [nM]: 3.6

a = CCc1nn(Cc2ccc(-c3ccccc3-c3nn[nH]n3)cc2)/c(=N/C(=O)c2ccccc2)s1
b = CCc1nn(Cc2ccc(-c3ccccc3-c3nn[nH]n3)cc2)/c(=N/C(=O)c2ccccc2C(=O)O)s1
Param pair: a , b . Output: the one whose IC50 is numerically greater. Please identify the chosen entry by its label. a
